Origin of values: PubChem BioAssay AID1159580

Test: chemical genetic growth profiling, strain panel (AID 1159580);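 further: tested at 20 µM; growth read once vehicle control cultures reached saturation at 30 °C; 1 = growth at the plate median or of vehicle wells; lower values mean less growth of the strain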
Details: S. cerevisiae deletion strains, growth OD, locus YDR150W, strain NUM1, hits give low values
The whole screen tested about 5,500 compounds, of which about 2,000 (36%) were called active. Not shown: some 18% with an inconclusive outcome. Some of the results follow.
metric: normalized growth
Form field (numeric): enter value without unit.

Previously resolved entries follow.
N[C@@H](Cn1oc(=O)[nH]c1=O)C(=O)O    0.996
O=c1cc(-c2ccccc2)oc2cc(O)c(O)c(O)c12    0.591
CN(C)CCOC(=O)C(c1ccccc1)C1(O)CCCC1 (centres undefined)    0.998
CCCCSP(=O)(SCCCC)SCCCC    1.01
CC(=O)Nc1ccc(S(=O)(=O)Nc2ncccn2)cc1    0.921

## Input Which value of normalized growth has been reported for Clc1ccc2c(c1)C(N1CCNCC1)=Nc1ccccc1O2 in the records?
## Output 0.974

## Input Which measured normalized growth value corresponds to CN1CC(CNC(=O)OCc2ccccc2)CC2c3cccc4c3c(cn4C)CC21 (centres undefined) ?
## Output 0.994

## Input I am curious: what normalized growth value has been reported for c1ccc2c(c1)CN1CCCC1=N2 ?
## Output 0.998

## Input Requested read-out: normalized growth. Entry: NCC(CC(=O)O)c1ccc(Cl)cc1 (centres undefined)
## Output 1.01

====

Each entry below lists one item and its recorded normalized growth value.
Assay: chemical genetic growth profiling, strain panel (AID 1159580)
Conditions: S. cerevisiae deletion strains, growth OD, locus YDR297W, strain sur2, hits give low values
Out of some 5,500 compounds screened, about 2,000 (36%) were called active. Inconclusive results (about 18%) are left out. Some of the results follow.
// response body must contain only the number

## Input Query: normalized growth; subject: CC(=O)Nc1ccccc1
## Output 0.975

## Input Reported normalized growth, compound N[C@H](Cc1cc(I)c(Oc2ccc(O)c(I)c2)c(I)c1)C(=O)O : ____
## Output 0.996

## Input Returns the measured normalized growth for the input compound. Input: Cc1cc(O)c(C=O)c2c1C(=O)Oc1c(COC(=O)/C=C/C(=O)O)c(O)c(C(=O)O)c(C)c1O2
## Output 0.957

## Input Recorded normalized growth of CC(=O)N=c1sc(S(N)(=O)=O)nn1C , please.
## Output 1

## Input So what's the measured normalized growth for this one? NC(Cc1ccc(F)cc1)C(=O)O (stereo unspecified)
## Output 1.02

## Input Quick one: normalized growth of C[C@H](CCC(=O)O)[C@H]1CCC2C3C(CC[C@@]21C)[C@@]1(C)CC[C@@H](O)C[C@H]1C[C@@H]3O (stereo partly specified) ?
## Output 0.989

## Input Tell me the measured normalized growth of CCN(CC)CCOC(=O)C(c1ccccc1)c1ccccc1 , please.
## Output 0.974

## Input If you can, please state the reported normalized growth value of OC[C@H]1OC([S-])[C@H](O)[C@@H](O)[C@@H]1O.[Au+] (stereo partly specified) .
## Output 1

## Input Can you look up the measured normalized growth of CC1=C2[C@H]3OC(=O)[C@@H](C)[C@@H]3CC[C@@]2(C)C=CC1=O for me?
## Output 0.968

## Input Consider the compound CN[C@@H]1[C@H](OC2[C@H](O[C@H]3[C@H](O)[C@@H](O)[C@H](N=C(N)N)[C@@H](O)[C@@H]3N=C(N)N)O[C@@H](C)[C@]2(O)C=O)O[C@@H](CO)[C@H](O)[C@H]1O (stereo partly specified) and give its measured normalized growth.
## Output 1.02

## Input Give its normalized growth value. Item: CCCCS(=N)(=O)CCC(N)C(=O)O (stereo unspecified)
## Output 0.993

## Input Would you mind telling me what normalized growth value was observed for N[C@H](Cc1ccccc1)C(=O)O ?
## Output 1

## Input Endpoint output: normalized growth of COc1cc(OC)c(OC)cc1C=O . Value?
## Output 0.989

## Input Bench note: what normalized growth did COc1cc([C@@H]2c3cc4c(cc3[C@H](OC(C)=O)[C@H]3COC(=O)[C@@H]23)OCO4)cc(OC)c1OC show?
## Output 1.01

====

Each item that follows carries a reported normalized growth.
Test: chemical genetic growth profiling, strain panel (AID 1159580);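 further: tested at 20 µM; growth read once vehicle control cultures reached saturation at 30 °C; 1 = growth at the plate median or of vehicle wells; lower values mean less growth of the strain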
Conditions: S. cerevisiae deletion strains, growth OD, strain TSCII, hits give low values
Hit rate of the full screen: of about 5,500 compounds, about 2,000 (36%) were called active. About 18% were inconclusive and are not listed. The list shows a part of the results.
Reply: number alone, nothing else.

## Input State the recorded normalized growth for this entry: O=C1/C(=C/c2cccs2)COc2ccccc21
## Output 0.895

## Input For O=C(CCn1c(=O)oc2ccccc21)Sc1ccc(C(F)(F)F)cc1 , what is its reported normalized growth?
## Output 0.931

## Input Consider the compound S=C(Nc1cc(Cl)c(Cl)cc1Cl)Nc1ccccc1Br and give its measured normalized growth.
## Output 0.953

## Input Looking for the measured normalized growth of COc1ccc(CC2CCC(=NOC(=O)c3c(Cl)cccc3Cl)CC2)cc1 (centres undefined) , can you help?
## Output 1.02

====

Assay: chemical genetic growth profiling, strain panel (AID 1159580);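 further: tested at 20 µM; growth read once vehicle control cultures reached saturation at 30 °C; 1 = growth at the plate median or of vehicle wells; lower values mean less growth of the strain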
Conditions: S. cerevisiae deletion strains, growth OD, locus YKL190W, strain CNB1, hits give low values
Out of some 5,500 compounds screened, about 2,000 (36%) were called active. Another 18% or so got no clear call; they are omitted. This is one part of the list. Where a SMILES comes first, the peptide text is derived from it.
metric: normalized growth
Returns: the value as a bare number; no unit string appended.

A selection of reference data follows.
C[C@H](N)[C@H](O)c1ccccc1    1
C=C[C@H]1CN2CC[C@H]1C[C@@H]2[C@H](O)c1ccnc2ccccc12    0.99
O=C1CSC(c2ccc(Cl)c(Cl)c2)N1c1ccc(F)cc1 (stereo not given)    0.985
CC(CN(C)C)CN1c2ccccc2CCc2ccccc21 (stereo not given)    1.02
COc1cc([C@@H]2c3cc4c(cc3[C@H](OC(C)=O)[C@H]3COC(=O)[C@@H]23)OCO4)cc(OC)c1OC    1.01
O=C(Nc1nccs1)c1ccc([N+](=O)[O-])cc1    1
N/C(=N/O)c1csc(-c2ccc(F)cc2F)n1    0.996
OC1=Cc2c(O)cc(O)cc2OC1(O)c1ccc(O)c(O)c1 (stereo not given)    0.992

## Input Entry under review: CC1(C)C(O)CC(O)C2(C)C1CC(O)C1(C)C2CCC2(C)C(c3ccoc3)OC(=O)C3OC321 (stereo not given) . Reported normalized growth?
## Output 0.996

## Input Recorded normalized growth for C=C1C2CC[C@@]3(C)[C@H](c4ccoc4)OC(=O)C[C@]13O[C@H]1CC(O)C(C)(C)C(CC(=O)OC)[C@@]21C (stereo not given in full) , please?
## Output 0.987

## Input // normalized growth lookup, key: COC(=O)c1c(C)cc(OC(=O)c2c(C)c(Cl)c(O)c(C=O)c2O)c(C)c1O
## Output 0.992

## Input Looking for the measured normalized growth of NCCCCC(N)C(=O)NC(Cc1ccc(O)cc1)C(=O)NC(CCCCN)C(=O)O (stereo not drawn) (H-Lys-Tyr-Lys-OH; configuration not given here) , can you help?
## Output 1.01

## Input Entry N#Cc1csc([N+](=O)[O-])c1 has what normalized growth?
## Output 0.923

## Input Suppose we examine the compound Cc1ccc(S(=O)(=O)Nc2ccc(C)c([N+](=O)[O-])c2)cc1 ; what normalized growth value has been reported?
## Output 0.988

## Input Look up normalized growth: NS(=O)(=O)c1cc2c(cc1Cl)NC(C1CC3C=CC1C3)NS2(=O)=O (stereo not given)
## Output 0.991

## Input Form field: reported normalized growth of CCCC(C(=O)OCCN(CC)CC)(c1ccccc1)c1ccccc1
## Output 0.995

## Input For the compound O=c1cc(-c2cc(O)c(O)c(O)c2)oc2cc(O)cc(O)c12 , what normalized growth is on record?
## Output 0.992

## Input # query: normalized growth of entry COc1cc([C@H]2Oc3cc([C@H]4Oc5cc(O)cc(O)c5C(=O)[C@@H]4O)ccc3O[C@@H]2CO)ccc1O
## Output 0.989

## Input Can you share its normalized growth? I mean this compound: O=C(O)CCCOc1ccc(Cl)cc1Cl
## Output 0.982

## Input Which normalized growth reading was recorded for the compound COc1cc2c(cc1/C=C/C(=O)c1cc(OC)c(OC)cc1OC)OCO2 ?
## Output 0.994

====

Assay: chemical genetic growth profiling, strain panel (AID 1159580);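 further: tested at 20 µM; growth read once vehicle control cultures reached saturation at 30 °C; 1 = growth at the plate median or of vehicle wells; lower values mean less growth of the strain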
Details: S. cerevisiae strains, growth OD, strain wild type, hits give low values
Hit rate of the full screen: of about 5,500 compounds, about 2,000 (36%) were called active. Roughly 18% stayed inconclusive and do not appear here. This is one part of the list.
metric: normalized growth
Reply briefly: the number, and no unit.

CN(C)CCOC(=O)C(c1ccccc1)C1(O)CCCC1 (stereo not given)    1
N#C/C(=C\c1cccc(O)c1)C(=O)O    1.02
COC(=O)COc1ccc(C(C)=O)cc1    0.99
COc1cc([C@H]2Oc3cc([C@H]4Oc5cc(O)cc(O)c5C(=O)[C@@H]4O)ccc3O[C@@H]2CO)ccc1O    1
Cn1nccc1NS(=O)(=O)c1cccc(Cl)c1    1.01

## Input Data request, read-out normalized growth, for O=C(O)CCCOc1ccc(Cl)cc1Cl
## Output 1

## Input Returns the measured normalized growth for the input molecule. Input: Cc1cc(NS(=O)(=O)c2ccc(NS(=O)(=O)c3cc(C)c(Cl)cc3C)cc2)no1
## Output 0.974

## Input Could you share which normalized growth value was measured for COC(=O)CCCOc1ccc(Cl)cc1Cl ?
## Output 0.975

## Input Name the recorded normalized growth for O=C(O)CCOc1ccc(Cl)cc1 .
## Output 1.01

## Input I have this molecule here, Clc1ccc(OCCOc2ccc(Cl)cc2)cc1 , and I need its recorded normalized growth.
## Output 1.01
